# System: OVCAR4
# Measurement notes: Euclidean distance of Cell Painting phenotypic profile (signed KS, 77 features) to DMSO centroid (dimensionless distance); 5 or 10 uM (library dependent); higher = stronger phenotypic change vs DMSO (phenoactivity)
# Run conditions: 48 h
Where a name gives a salt, the structure may show the parent alone.
Measured parameter: Euclidean distance

INSERT INTO assay_data (compound, measured_parameter, quantitative_readout) VALUES
  ('CC#CCn1c(N2CCC[C@@H](N)C2)nc2c1c(=O)n(Cc1nc(C)c3ccccc3n1)c(=O)n2C', 'Euclidean distance', 0.529),
  ('O=C1NS(=O)(=O)c2ccccc21', 'Euclidean distance', 0.73),
  ('COc1cccc(CCc2ccccc2OCC(CN(C)C)OC(=O)CCC(=O)O)c1 (stereo not drawn) [Sarpogrelate hydrochloride]', 'Euclidean distance', 1.63),
  ('CC(=O)[C@@]1(O)CC[C@H]2[C@@H]3CCC4=CC(=O)CCC4=C3[C@@H](c3ccc(N(C)C)cc3)C[C@@]21C', 'Euclidean distance', 0.761),
  ('CCS(=O)(=O)N1CCN(c2ccc(Nc3ncc(C(N)=O)c(NC4CC4)n3)cc2)CC1', 'Euclidean distance', 3.39),
  ('CNC(=O)Nc1ccc(-c2nc(N3CC4CCC(C3)O4)c3cnn(C4CCC5(CC4)OCCO5)c3n2)cc1', 'Euclidean distance', 4.35),
  ('CS(=O)(=O)c1ccc(C2=C(c3ccccc3)C(=O)OC2)cc1', 'Euclidean distance', 1.24),
  ('CN1CCN(CC(=O)N2c3ccccc3C(=O)Nc3cccnc32)CC1 [Pirenzepine dihydrochloride]', 'Euclidean distance', 0.804);

---

# Test system: FB
# Measurement notes: Euclidean distance of Cell Painting phenotypic profile (signed KS, 77 features) to DMSO centroid (dimensionless distance); 5 or 10 uM (library dependent); higher = stronger phenotypic change vs DMSO (phenoactivity)
# Run conditions: 48 h
Measured parameter: Euclidean distance

INSERT INTO assay_data (compound, target_or_system, quantitative_readout) VALUES
  ('Cc1ccc(Cl)cc1N(CC(=O)Nc1c(F)cccc1F)S(C)(=O)=O', 'FB', 0.614),
  ('O=c1[nH]c(=O)n([C@H]2C[C@H](O)[C@@H](CO)O2)cc1I [Idoxuridine]', 'FB', 1.41),
  ('CCCNC(=O)Nc1ccc(Oc2ncnc3cc(OC)c(OC)cc23)cc1Cl', 'FB', 2.36),
  ('Cc1[nH]c(/C=C2\C(=O)Nc3ccc(S(=O)(=O)N(C)c4cccc(Cl)c4)cc32)c(C)c1C(=O)N1CCN(C)CC1', 'FB', 2.51),
  ('O=C1C(N(CO)C(=O)NCO)N(CO)C(=O)N1CO (stereo unspecified) [Diazolidinyl urea]', 'FB', 0.783),
  ('Clc1ccc(CSC(Cn2ccnc2)c2ccc(Cl)cc2Cl)cc1 (stereo unspecified) [Sulconazole Nitrate]', 'FB', 0.983),
  ('O=C1NC(=O)C(c2ccccc2[N+](=O)[O-])=C1Nc1ccc(O)c(Cl)c1', 'FB', 0.936),
  ('COc1cccc(N2CCN(C3=Nc4c(F)cccc4C(CC(=O)O)N3c3cc(C(F)(F)F)ccc3OC)CC2)c1 (stereo unspecified) [Letermovir(AIC246)]', 'FB', 0.978),
  ('CC(C)c1c(C(=O)Nc2ccccc2)c(-c2ccccc2)c(-c2ccc(F)cc2)n1CC[C@@H](O)C[C@@H](O)CC(=O)O [atorvastatin]', 'FB', 3.29),
  ('CC(C)CC(N)=O [Isovaleramide]', 'FB', 0.571),
  ('CCC(=O)O[C@H]1[C@H](O[C@@H]2[C@@H](C)[C@H](O[C@H]3C[C@@](C)(OC)[C@@H](O)[C@H](C)O3)[C@@H](C)C(=O)O[C@H](CC)[C@@](C)(O)[C@H](O)[C@@H](C)C(=O)[C@H](C)C[C@@]2(C)O)O[C@H](C)C[C@@H]1N(C)C [Erythromycin estolate]', 'FB', 1.82),
  ('CC(C)C[C@@H](C=O)NC(=O)[C@H](CC(C)C)NC(=O)[C@H](CC(C)C)NC(=O)OCc1ccccc1', 'FB', 3.41),
  ('COc1cccc2c1C(=O)c1c(O)c3c(c(O)c1C2=O)C[C@@](O)(C(=O)CO)C[C@@H]3O[C@H]1C[C@H](N)[C@H](O[C@@H]2CCCCO2)[C@H](C)O1 [Pirarubicin]', 'FB', 4.28),
  ('CN1CCN(CCCN2c3ccccc3Sc3ccc(C(F)(F)F)cc32)CC1 [Trifluoperazine 2HCl]', 'FB', 2.19),
  ('C[N+](C)(C)CC(=O)O [Betaine]', 'FB', 0.947),
  ('Cc1c(Cl)cccc1Nc1ncccc1C(=O)O [Clonixin]', 'FB', 1.11);

---

# Tested on: OVCAR4
# Measurement notes: Euclidean distance of Cell Painting phenotypic profile (signed KS, 77 features) to DMSO centroid (dimensionless distance); 5 or 10 uM (library dependent); higher = stronger phenotypic change vs DMSO (phenoactivity)
# Run conditions: 48 h
Measured parameter: Euclidean distance

INSERT INTO assay_data (molecule, quantitative_readout) VALUES
  ('C[C@H]1COC2=C1C(=O)C(=O)c1c2ccc2c1CCCC2(C)C', 1.31),
  ('CC(C)(CO)[C@@H](O)C(=O)NCCC(=O)O [D-Pantothenic acid]', 1.11),
  ('Cc1ccc(/C(=C\CN2CCCC2)c2cccc(/C=C/C(=O)O)n2)cc1', 1.02),
  ('COc1ccnc(C[S+]([O-])c2nc3cc(-n4cccc4)ccc3[nH]2)c1C (centres undefined) [Ilaprazole]', 1.27),
  ('CC(C(=O)O)c1ccc(C(=O)c2ccccc2)s1 (centres undefined)', 0.857),
  ('Nc1cc(C(Cl)=C(Cl)Cl)c(S(N)(=O)=O)cc1S(N)(=O)=O', 1.18),
  ('COC(=O)C1=C(C)NC(C)=C(C(=O)OCC(C)C)C1c1ccccc1[N+](=O)[O-] (centres undefined)', 1.43),
  ('CC[C@@H]1/C=C(\C)C[C@H](C)C[C@H](OC)[C@H]2O[C@@](O)(C(=O)C(=O)N3CCCC[C@H]3C(=O)O[C@H](/C(C)=C/[C@@H]3CC[C@H](Cl)[C@H](OC)C3)[C@H](C)[C@@H](O)CC1=O)[C@H](C)C[C@@H]2OC', 1.29),
  ('Cc1nc(N)sc1-c1ccnc(Nc2ccc(N3CCOCC3)cc2)n1', 2.59),
  ('O=C(CCc1ccc(O)cc1)c1c(O)cc(O)cc1O[C@@H]1O[C@H](CO)[C@@H](O)[C@H](O)[C@H]1O', 0.783),
  ('CC(=O)NS(=O)(=O)c1ccc(N)cc1 [Sulfacetamide Sodium]', 1.05),
  ('CC1=C[C@H]2C(=O)O[C@H]3C[C@@H](C/C=C(\C)C[C@@H](C)/C=C/C=C4\CO[C@H](/C1=N\O)[C@@]42O)O[C@@]1(CC[C@H](C)[C@@H](C)O1)C3.CC[C@H]1O[C@]2(CC[C@@H]1C)C[C@@H]1C[C@@H](C/C=C(\C)C[C@@H](C)/C=C/C=C3\CO[C@@H]4/C(=N\O)C(C)=C[C@@H](C(=O)O1)[C@]34O)O2', 1.11),
  ('O=C(/C=C\n1cnc(-c2cc(C(F)(F)F)cc(C(F)(F)F)c2)n1)NNc1cnccn1', 3.83),
  ('C=C[C@]1(C)C[C@@H](OC(=O)CS[C@@H]2C[C@H]3CC[C@@H](C2)N3C)[C@]2(C)[C@H](C)CC[C@]3(CCC(=O)[C@H]32)[C@@H](C)[C@@H]1O', 1.59);

---

# reported Euclidean distance; entries follow
# Tested on: OVCAR4
# Measurement notes: Euclidean distance of Cell Painting phenotypic profile (signed KS, 77 features) to DMSO centroid (dimensionless distance); 5 or 10 uM (library dependent); higher = stronger phenotypic change vs DMSO (phenoactivity)
# Run conditions: 48 h
Structures can show the parent of a compound that is named as a salt.
Measured parameter: Euclidean distance

INSERT INTO measurements (compound, quantitative_readout) VALUES
  ('CC(N)C12CC3CC(CC(C3)C1)C2 (centres undefined)', 1.37),
  ('CCCCCCCCc1ccc(CCC(N)(CO)CO)cc1', 4.16),
  ('O=C(O)Cc1ccc(-c2ccccc2)cc1', 1.62),
  ('CCc1ccc(N(CC(C)C)S(=O)(=O)c2ccc(OCC3CCOCC3)c(CO)c2)cc1', 1.66),
  ('O=C(NCCS(=O)(=O)c1ccc(C(F)(F)F)cn1)c1ccc(Cl)cc1', 1.18),
  ('CCc1cc(C(N)=S)ccn1 [Ethionamide]', 1.4),
  ('COC(=O)[C@]12CCC(C)(C)C[C@H]1[C@H]1C(=O)C=C3[C@@]4(C)C=C(C#N)C(=O)C(C)(C)[C@@H]4CC[C@@]3(C)[C@]1(C)CC2', 6.33),
  ('OCCN1CCN(CC/C=C2/c3ccccc3Sc3ccc(C(F)(F)F)cc32)CC1 [Flupenthixol dihydrochloride]', 2.01),
  ('CC(C)[C@H](O)C(=O)N[C@@H](C)C(=O)N[C@@H]1C(=O)N(C)CCc2ccccc21', 1.03),
  ('Cc1cnc(NC(=O)Nc2cc(Br)c(C)cc2OC[C@@H]2CNCCO2)cn1', 3.62),
  ('O=c1cc(N2CCOCC2)oc2c(-c3cccc4c3sc3ccccc34)cccc12', 1.93),
  ('Cc1nnc(C(=O)NC(C)(C)c2nc(C(=O)NCc3ccc(F)cc3)c(O)c(=O)n2C)o1 [Raltegravir (MK-0518)]', 1.35),
  ('C=C1CC/C=C(/C)CC[C@@H]2[C@@H]1CC2(C)C', 1.68),
  ('OC[C@@H](O)[C@@H](O)[C@H](O)[C@H](O)CO', 0.791),
  ('CC(C)(C)[N+]([O-])=Cc1ccc(S(=O)(=O)O)cc1S(=O)(=O)O', 1.57),
  ('CNC(=O)c1ccc(N2C(=S)N(c3ccc(C#N)c(C(F)(F)F)c3)C(=O)C2(C)C)cc1F [Enzalutamide (MDV3100)]', 1.18),
  ('CC(C)NCC(O)COc1cccc2ccccc12 (centres undefined) [Propranolol HCl]', 1.01),
  ('Nc1nccs1', 1.9),
  ('CC(=O)[C@@]1(O)CC[C@H]2[C@@H]3C[C@H](C)C4=CC(=O)C=C[C@]4(C)[C@@]3(F)[C@@H](O)C[C@@]21C', 1.8);
